MIC E. coli 058 reference
# Tested on: Escherichia coli
# Type: cell-based
Bridge positions count the residues as written; N and C are the ends. Square brackets hold non-standard residues; d marks the D form. Peptide text beside a SMILES is read from it. * marks the point of attachment. ξ: configuration not given here. dBip = N[C@H](Cc1ccc(-c2ccccc2)cc1)C(=O)O; X9 = Cc1ccc(CO[C@@H](CCN)C(=O)*)cc1; X3 = CCCCCCCCN1CCNC[C@H]1C(=O)*; dCha = N[C@H](CC1CCCCC1)C(=O)O; Thr(3ξ) = CC(O)[C@H](N)C(=O)O; X25 = CCCCO[C@@H](CCN)C(=O)*; X4 = CC(C)CC1CNCC(C(=O)*)C1; X15 = NCCC(CC1CCCC1)C(=O)*; Dab = NCC[C@H](N)C(=O)O; Dap = NC[C@H](N)C(=O)O; X18 = CCCCC(CCN)C(=O)*

COMPOUND	MIC E. coli 058 / µg/mL
CC(C)CC1CNCC(C(=O)N[C@H](C(=O)N[C@@H](CCN)C(=O)N[C@H]2CCNC(=O)[C@H]([C@@H](C)O)NC(=O)[C@H](CCN)NC(=O)[C@H](CCN)NC(=O)[C@H](CC(C)C)NC(=O)[C@@H](CC3CCCCC3)NC(=O)[C@H](CCN)NC2=O)[C@@H](C)O)C1 (some centres unmarked) [Example 73] (X4-T[Dab][Dab][Dab][dCha]L[Dab][Dab]T; lactam 3-C)	1
CC(C)CC1CNCC(C(=O)N[C@H](C(=O)N[C@@H](CN)C(=O)N[C@H]2CCNC(=O)[C@H]([C@@H](C)O)NC(=O)[C@H](CCN)NC(=O)[C@H](CCN)NC(=O)[C@H](CC(C)C)NC(=O)[C@@H](Cc3ccc(Br)cc3)NC(=O)[C@H](CCN)NC2=O)C(C)O)C1 (single isomer, unassigned; isomer 2) [Example 12]	0.25
CC(C)C[C@@H]1NC(=O)[C@@H](CC2CCCCC2)NC(=O)[C@H](CCN)NC(=O)[C@@H](NC(=O)[C@H](CN)NC(=O)[C@@H](NC(=O)C(CCN)CC2CCCC2)[C@@H](C)O)CCNC(=O)[C@H]([C@@H](C)O)NC(=O)[C@H](CCN)NC(=O)[C@H](CCN)NC1=O (some centres unmarked) [Example 75] (X15-T[Dap][Dab][Dab][dCha]L[Dab][Dab]T; lactam 3-C)	2
CCCCC(CCN)C(=O)N[C@H](C(=O)N[C@@H](CCN)C(=O)N[C@H]1CCNC(=O)[C@H]([C@@H](C)O)NC(=O)[C@H](CCN)NC(=O)[C@H](CCN)NC(=O)[C@H](CC(C)C)NC(=O)[C@@H](CC2CCCCC2)NC(=O)[C@H](CCN)NC1=O)C(C)O (some centres unmarked) [Example 40] (X18-[Thr(3ξ)][Dab][Dab][Dab][dCha]L[Dab][Dab]T; lactam 3-C)	8
CCCCCCCCN1CCNC[C@H]1C(=O)N[C@H](C(=O)N[C@@H](CCN)C(=O)N[C@H]1CCNC(=O)[C@H]([C@@H](C)O)NC(=O)[C@H](CCN)NC(=O)[C@H](CCN)NC(=O)[C@H](CC(C)C)NC(=O)[C@@H](Cc2ccc(-c3ccccc3)cc2)NC(=O)[C@H](CCN)NC1=O)C(C)O (some centres unmarked) [Example 6] (X3-[Thr(3ξ)][Dab][Dab][Dab][dBip]L[Dab][Dab]T; lactam 3-C)	1
CCCCO[C@@H](CCN)C(=O)N[C@H](C(=O)N[C@@H](CN)C(=O)N[C@H]1CCNC(=O)[C@H]([C@@H](C)O)NC(=O)[C@H](CCN)NC(=O)[C@H](CCN)NC(=O)[C@H](CC(C)C)NC(=O)[C@@H](CC2CCCCC2)NC(=O)[C@H](CCN)NC1=O)C(C)O (some centres unmarked) [Example 46] (X25-[Thr(3ξ)][Dap][Dab][Dab][dCha]L[Dab][Dab]T; lactam 3-C)	8
CC(C)C[C@@H]1NC(=O)[C@@H](CC2CCCCC2)NC(=O)[C@H](CCN)NC(=O)[C@@H](NC(=O)[C@H](CN)NC(=O)[C@@H](NC(=O)CC(CN)c2ccc(Cl)cc2)C(C)O)CCNC(=O)[C@H]([C@@H](C)O)NC(=O)[C@H](CCN)NC(=O)[C@H](CCN)NC1=O (single isomer, unassigned; isomer 1) [Example 50]	2
CC(C)CC(CN)C(=O)N[C@H](C(=O)N[C@@H](CN)C(=O)N[C@H]1CCNC(=O)[C@H]([C@@H](C)O)NC(=O)[C@H](CCN)NC(=O)[C@H](CCN)NC(=O)[C@H](CC(C)C)NC(=O)[C@@H](Cc2ccc(-c3ccccc3)cc2)NC(=O)[C@H](CCN)NC1=O)C(C)O (single isomer, unassigned; isomer 1) [Example 15]	32
CCCCCC/C=C/c1ccc(C[C@H]2NC(=O)[C@H](CCN)NC(=O)[C@@H](NC(=O)[C@H](CN)NC(=O)[C@@H](NC(=O)C3CNCC(CC(C)C)C3)C(C)O)CCNC(=O)[C@H]([C@@H](C)O)NC(=O)[C@H](CCN)NC(=O)[C@H](CCN)NC(=O)[C@H](CC(C)C)NC2=O)cc1 (single isomer, unassigned; isomer 1) [Example 17]	2
CC(C)C[C@@H]1NC(=O)[C@@H](CC2CCCCC2)NC(=O)[C@H](CCN)NC(=O)[C@@H](NC(=O)[C@H](CN)NC(=O)[C@@H](NC(=O)C(CCN)c2ccc(F)cc2)C(C)O)CCNC(=O)[C@H]([C@@H](C)O)NC(=O)[C@H](CCN)NC(=O)[C@H](CCN)NC1=O (single isomer, unassigned; isomer 2)	2
Cc1ccc(CO[C@@H](CCN)C(=O)N[C@H](C(=O)N[C@@H](CN)C(=O)N[C@H]2CCNC(=O)[C@H]([C@@H](C)O)NC(=O)[C@H](CCN)NC(=O)[C@H](CCN)NC(=O)[C@H](CC(C)C)NC(=O)[C@@H](CC3CCCCC3)NC(=O)[C@H](CCN)NC2=O)[C@@H](C)O)cc1 [Example 71] (X9-T[Dap][Dab][Dab][dCha]L[Dab][Dab]T; lactam 3-C)	4

====

MIC A. baumanii 056 reference
# System: Acinetobacter baumannii
# Format: cell-based
# CONDITION SUMMARY: strain 056
MEASURE NAME: MIC A. baumanii 056

MOLECULE	TEST RESULT
CC(C)C[C@@H]1NC(=O)[C@@H](CC2CCCCC2)NC(=O)[C@H](CCN)NC(=O)[C@@H](NC(=O)[C@H](CN)NC(=O)[C@@H](NC(=O)CC(CN)Cc2ccccc2)[C@@H](C)O)CCNC(=O)[C@H]([C@@H](C)O)NC(=O)[C@H](CCN)NC(=O)[C@H](CCN)NC1=O (single isomer, unassigned; isomer 1) [Example 58]	64 µg/mL
CC(C)C[C@@H]1NC(=O)[C@@H](CC2CCCCC2)NC(=O)[C@H](CCN)NC(=O)[C@@H](NC(=O)[C@H](CN)NC(=O)[C@@H](NC(=O)CC(CN)Cc2ccccc2)[C@@H](C)O)CCNC(=O)[C@H]([C@@H](C)O)NC(=O)[C@H](CCN)NC(=O)[C@H](CCN)NC1=O (single isomer, unassigned; isomer 2) [Example 59]	16 µg/mL

====

# Tested on: Pseudomonas aeruginosa
# Assay type: cell-based
Numbered stars: 1 amine (or outer) side, 2 acyl side, 3 side chain; on linkers, the order of the positions; unused ones are H or OH. Bridge positions count the residues as written; N and C are the ends. Square brackets hold non-standard residues; d marks the D form. Peptide text beside a SMILES is read from it. * marks the point of attachment. ξ: configuration not given here. X17 = CCCCCCN([C@@H](CCN)C(=O)[*:2])[*:1]; dCha = N[C@H](CC1CCCCC1)C(=O)O; Thr(3ξ) = CC(O)[C@H](N)C(=O)O; X15 = NCCC(CC1CCCC1)C(=O)*; Dab = NCC[C@H](N)C(=O)O; Dap = NC[C@H](N)C(=O)O
MEASURE NAME: MIC P. aeruginosa 068

COMPOUND	TGT	TEST RESULT
CC(C)C[C@@H]1NC(=O)[C@@H](CC2CCCCC2)NC(=O)[C@H](CCN)NC(=O)[C@@H](NC(=O)[C@H](CCN)NC(=O)[C@@H](NC(=O)C(CCN)CC2CCCC2)[C@@H](C)O)CCNC(=O)[C@H]([C@@H](C)O)NC(=O)[C@H](CCN)NC(=O)[C@H](CCN)NC1=O (some centres unmarked) [Example 83] (X15-T[Dab][Dab][Dab][dCha]L[Dab][Dab]T; lactam 3-C)	Pseudomonas aeruginosa	2 µg/mL
CCCCCCN[C@@H](CCN)C(=O)N[C@H](C(=O)N[C@@H](CN)C(=O)N[C@H]1CCNC(=O)[C@H]([C@@H](C)O)NC(=O)[C@H](CCN)NC(=O)[C@H](CCN)NC(=O)[C@H](CC(C)C)NC(=O)[C@@H](CC2CCCCC2)NC(=O)[C@H](CCN)NC1=O)C(C)O (some centres unmarked) [Example 49] (H-[X17][Thr(3ξ)][Dap][Dab][Dab][dCha]L[Dab][Dab]T; lactam 4-C)	Pseudomonas aeruginosa	2 µg/mL
